Data origin: ChEMBL document CHEMBL1144796

# assayed-system: Carbonic anhydrase 5B, mitochondrial (Homo sapiens) (UniProt Q9Y2D0)
# Sequence (Q9Y2D0 whole entry): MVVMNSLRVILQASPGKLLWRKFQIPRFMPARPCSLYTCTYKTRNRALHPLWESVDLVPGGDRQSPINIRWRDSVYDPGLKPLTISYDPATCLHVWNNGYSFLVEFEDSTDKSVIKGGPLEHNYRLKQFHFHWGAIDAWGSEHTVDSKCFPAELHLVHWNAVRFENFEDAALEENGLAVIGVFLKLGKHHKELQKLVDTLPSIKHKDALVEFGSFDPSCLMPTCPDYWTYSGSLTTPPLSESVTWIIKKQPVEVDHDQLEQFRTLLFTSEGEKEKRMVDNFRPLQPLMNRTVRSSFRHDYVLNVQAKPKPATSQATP
observation-type: Ki (nM)

Examples from the recorded data:
[
  {
    "compound": "CC1Nc2cc(C(F)(F)F)c(S(N)(=O)=O)cc2S(=O)(=O)N1C (stereo not given)",
    "assayed-system": "Carbonic anhydrase 5B, mitochondrial (Homo sapiens) (UniProt Q9Y2D0)",
    "observation-type": "Ki",
    "data-value": 429
  },
  {
    "compound": "NS(=O)(=O)c1cc(C2(O)NC(=O)c3ccccc32)ccc1Cl (stereo not given)",
    "assayed-system": "Carbonic anhydrase 5B, mitochondrial (Homo sapiens) (UniProt Q9Y2D0)",
    "observation-type": "Ki",
    "data-value": 9
  }
]

I = CCCCNc1cc(C(=O)O)cc(S(N)(=O)=O)c1Oc1ccccc1
II = Cc1ccccc1N1C(=O)c2cc(S(N)(=O)=O)c(Cl)cc2NC1C (stereo not given)
III = CC1Nc2cc(Cl)c(S(N)(=O)=O)cc2S(=O)(=O)N1C (stereo not given)
Problem: Task field, ranking: reported Ki, descending order. The response must list the labels following the requested ordering.
Result: III, II, I

----------
pKi: −log10 of the molar value.
# pKi measurements, system: UniProt:Q9ULX7
# Sequence (Q9ULX7 whole entry): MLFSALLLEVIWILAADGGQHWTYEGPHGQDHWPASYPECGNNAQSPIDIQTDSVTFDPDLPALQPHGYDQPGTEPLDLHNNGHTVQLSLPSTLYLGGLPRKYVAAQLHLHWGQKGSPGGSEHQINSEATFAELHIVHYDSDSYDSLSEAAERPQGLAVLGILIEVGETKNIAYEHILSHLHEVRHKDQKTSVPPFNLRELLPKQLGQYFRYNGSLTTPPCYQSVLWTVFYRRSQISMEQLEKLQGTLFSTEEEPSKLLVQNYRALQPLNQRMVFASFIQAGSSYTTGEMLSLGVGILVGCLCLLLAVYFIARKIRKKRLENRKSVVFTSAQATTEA
observation-type: pKi

Examples from the recorded data:
[
  {
    "compound": "CCCCNc1cc(C(=O)O)cc(S(N)(=O)=O)c1Oc1ccccc1",
    "assayed-system": "UniProt:Q9ULX7",
    "observation-type": "pKi",
    "data-value": 6.60
  },
  {
    "compound": "Cc1ccccc1N1C(=O)c2cc(S(N)(=O)=O)c(Cl)cc2NC1C (stereo not given)",
    "assayed-system": "UniProt:Q9ULX7",
    "observation-type": "pKi",
    "data-value": 5.27
  },
  {
    "compound": "NS(=O)(=O)c1cc(C2(O)NC(=O)c3ccccc32)ccc1Cl (stereo not given)",
    "assayed-system": "UniProt:Q9ULX7",
    "observation-type": "pKi",
    "data-value": 5.38
  }
]

a = CC1Nc2cc(Cl)c(S(N)(=O)=O)cc2S(=O)(=O)N1C (stereo not given)
b = CC1Nc2cc(C(F)(F)F)c(S(N)(=O)=O)cc2S(=O)(=O)N1C (stereo not given)
Problem: a or b : whose pKi is greater? Please identify the chosen entry by its label.
Result: b

----------
# Ki measurements, system: Carbonic anhydrase 12 (Homo sapiens) (UniProt O43570)
# Sequence (O43570 whole entry): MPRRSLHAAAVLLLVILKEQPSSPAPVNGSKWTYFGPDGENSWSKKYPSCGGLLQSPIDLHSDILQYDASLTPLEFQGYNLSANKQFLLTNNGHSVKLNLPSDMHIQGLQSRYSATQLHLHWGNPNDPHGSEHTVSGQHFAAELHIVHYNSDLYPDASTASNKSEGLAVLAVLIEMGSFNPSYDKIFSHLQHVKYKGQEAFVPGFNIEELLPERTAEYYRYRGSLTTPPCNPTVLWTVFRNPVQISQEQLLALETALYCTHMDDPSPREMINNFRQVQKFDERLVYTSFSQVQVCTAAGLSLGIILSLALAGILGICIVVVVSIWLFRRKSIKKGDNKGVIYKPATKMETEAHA
observation-type: Ki (nM)

[
  {
    "molecule": "CC1Nc2cc(C(F)(F)F)c(S(N)(=O)=O)cc2S(=O)(=O)N1C (centres undefined)",
    "data-value": 305
  }
]

P = CCCCNc1cc(C(=O)O)cc(S(N)(=O)=O)c1Oc1ccccc1
Q = CC1Nc2cc(Cl)c(S(N)(=O)=O)cc2S(=O)(=O)N1C (centres undefined)
R = Cc1ccccc1N1C(=O)c2cc(S(N)(=O)=O)c(Cl)cc2NC1C (centres undefined)
Problem: Task field, ranking: reported Ki, descending order. The response must list the labels following the requested ordering.
Result: Q, P, R

----------
# assayed-system: Carbonic anhydrase 2 (Homo sapiens)
pKi: −log10 of the molar value.
observation-type: pKi

Examples from the recorded data:
[
  {
    "molecule": "CCCCNc1cc(C(=O)O)cc(S(N)(=O)=O)c1Oc1ccccc1",
    "pKi": 5.16
  },
  {
    "molecule": "NS(=O)(=O)c1cc(C2(O)NC(=O)c3ccccc32)ccc1Cl (stereo not given)",
    "pKi": 6.86
  },
  {
    "molecule": "CCC1NC(=O)c2cc(S(N)(=O)=O)c(Cl)cc2N1 (stereo not given)",
    "pKi": 5.90
  }
]

P = CC1Nc2cc(C(F)(F)F)c(S(N)(=O)=O)cc2S(=O)(=O)N1C (stereo not given)
Q = Cc1ccccc1N1C(=O)c2cc(S(N)(=O)=O)c(Cl)cc2NC1C (stereo not given)
Problem: P or Q : whose pKi is greater? Please identify the chosen entry by its label.
Result: P
(P: 6.36, Q: 5.70)

----------
# Ki measurements, system: Carbonic anhydrase 7 (Homo sapiens) (UniProt P43166)
# Sequence (P43166 whole entry): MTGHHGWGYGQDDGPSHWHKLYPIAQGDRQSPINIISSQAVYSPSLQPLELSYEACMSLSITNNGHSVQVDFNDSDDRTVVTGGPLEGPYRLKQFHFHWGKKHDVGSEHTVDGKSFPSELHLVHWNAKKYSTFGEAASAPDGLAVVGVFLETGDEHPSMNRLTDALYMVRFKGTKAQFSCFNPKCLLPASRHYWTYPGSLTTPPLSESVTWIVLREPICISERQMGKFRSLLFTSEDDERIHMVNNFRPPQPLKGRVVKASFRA
observation-type: Ki (nM)

[
  {
    "molecule": "NS(=O)(=O)c1cc(C2(O)NC(=O)c3ccccc32)ccc1Cl (stereo not drawn)",
    "Ki, nM": 2.8
  }
]

P = CC1Nc2cc(C(F)(F)F)c(S(N)(=O)=O)cc2S(=O)(=O)N1C (stereo not drawn)
Q = CCCCNc1cc(C(=O)O)cc(S(N)(=O)=O)c1Oc1ccccc1
Problem: Looking at recorded values for Ki, does P or Q come in lower? Please identify the chosen entry by its label.
Result: Q
(Q: 62 nM, P: 433 nM)

----------
# Ki measurements, system: Carbonic anhydrase 4 (Homo sapiens)
observation-type: Ki (nM)

[
  {
    "compound": "CCCCNc1cc(C(=O)O)cc(S(N)(=O)=O)c1Oc1ccccc1",
    "assayed-system": "Carbonic anhydrase 4 (Homo sapiens)",
    "Ki [nM]": 303
  },
  {
    "compound": "Cc1ccccc1N1C(=O)c2cc(S(N)(=O)=O)c(Cl)cc2NC1C (stereo not given)",
    "assayed-system": "Carbonic anhydrase 4 (Homo sapiens)",
    "Ki [nM]": 216
  },
  {
    "compound": "NS(=O)(=O)c1cc(C2(O)NC(=O)c3ccccc32)ccc1Cl (stereo not given)",
    "assayed-system": "Carbonic anhydrase 4 (Homo sapiens)",
    "Ki [nM]": 196
  }
]

a = CC1Nc2cc(C(F)(F)F)c(S(N)(=O)=O)cc2S(=O)(=O)N1C (stereo not given)
b = CC1Nc2cc(Cl)c(S(N)(=O)=O)cc2S(=O)(=O)N1C (stereo not given)
Problem: Looking at recorded values for Ki, does a or b come in lower? Please identify the chosen entry by its label.
Result: b

----------
# Ki measurements, system: Carbonic anhydrase 5A, mitochondrial (Homo sapiens) (UniProt P35218)
# Sequence (P35218 whole entry): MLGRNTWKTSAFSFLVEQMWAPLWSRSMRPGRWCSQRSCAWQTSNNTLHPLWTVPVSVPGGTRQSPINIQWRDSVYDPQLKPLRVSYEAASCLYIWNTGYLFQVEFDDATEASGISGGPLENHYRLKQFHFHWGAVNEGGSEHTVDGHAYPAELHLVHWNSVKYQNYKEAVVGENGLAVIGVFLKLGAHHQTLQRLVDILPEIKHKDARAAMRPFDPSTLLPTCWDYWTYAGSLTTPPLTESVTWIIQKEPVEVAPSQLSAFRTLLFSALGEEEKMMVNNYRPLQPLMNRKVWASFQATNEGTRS
observation-type: Ki (nM)

Examples from the recorded data:
[
  {
    "molecule": "CCCCNc1cc(C(=O)O)cc(S(N)(=O)=O)c1Oc1ccccc1",
    "value-units": "nM",
    "Ki": 700
  },
  {
    "molecule": "NS(=O)(=O)c1cc(C2(O)NC(=O)c3ccccc32)ccc1Cl (stereo not given)",
    "value-units": "nM",
    "Ki": 917
  }
]

I = CC1Nc2cc(C(F)(F)F)c(S(N)(=O)=O)cc2S(=O)(=O)N1C (stereo not given)
II = Cc1ccccc1N1C(=O)c2cc(S(N)(=O)=O)c(Cl)cc2NC1C (stereo not given)
III = CC1Nc2cc(Cl)c(S(N)(=O)=O)cc2S(=O)(=O)N1C (stereo not given)
Problem: Task field, ranking: reported Ki, descending order. The response must list the labels following the requested ordering.
Result: I, III, II
(I: 10200 nM, III: 4220 nM, II: 750 nM)

----------
# assayed-system: Carbonic anhydrase 13 (Mus musculus) (UniProt Q9D6N1)
# Sequence (Q9D6N1 whole entry, looked up): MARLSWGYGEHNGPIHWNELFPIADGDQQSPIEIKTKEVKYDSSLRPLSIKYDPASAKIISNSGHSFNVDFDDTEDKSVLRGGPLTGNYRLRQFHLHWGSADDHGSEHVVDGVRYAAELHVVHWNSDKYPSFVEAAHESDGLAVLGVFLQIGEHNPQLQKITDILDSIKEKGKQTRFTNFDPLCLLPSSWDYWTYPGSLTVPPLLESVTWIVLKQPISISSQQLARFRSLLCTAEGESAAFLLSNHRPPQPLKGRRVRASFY
# protocol-details: Inhibition of mouse full length carbonic anhydrase 13
pKi: −log10 of the molar value.
observation-type: pKi

Examples from the recorded data:
[
  {
    "compound": "CCCCNc1cc(C(=O)O)cc(S(N)(=O)=O)c1Oc1ccccc1",
    "assayed-system": "Carbonic anhydrase 13 (Mus musculus) (UniProt Q9D6N1)",
    "pKi": 5.59
  },
  {
    "compound": "NS(=O)(=O)c1cc(C2(O)NC(=O)c3ccccc32)ccc1Cl (stereo not given)",
    "assayed-system": "Carbonic anhydrase 13 (Mus musculus) (UniProt Q9D6N1)",
    "pKi": 7.82
  }
]

P = CC1Nc2cc(C(F)(F)F)c(S(N)(=O)=O)cc2S(=O)(=O)N1C (stereo not given)
Q = CC1Nc2cc(Cl)c(S(N)(=O)=O)cc2S(=O)(=O)N1C (stereo not given)
R = Cc1ccccc1N1C(=O)c2cc(S(N)(=O)=O)c(Cl)cc2NC1C (stereo not given)
Problem: Task field, ranking: reported pKi, descending order. The response must list the labels following the requested ordering.
Result: R, Q, P
(R: 7.82, Q: 5.41, P: 4.81)

----------
# Ki measurements, system: Carbonic anhydrase 6 (Homo sapiens) (UniProt P23280)
# Sequence (P23280 whole entry): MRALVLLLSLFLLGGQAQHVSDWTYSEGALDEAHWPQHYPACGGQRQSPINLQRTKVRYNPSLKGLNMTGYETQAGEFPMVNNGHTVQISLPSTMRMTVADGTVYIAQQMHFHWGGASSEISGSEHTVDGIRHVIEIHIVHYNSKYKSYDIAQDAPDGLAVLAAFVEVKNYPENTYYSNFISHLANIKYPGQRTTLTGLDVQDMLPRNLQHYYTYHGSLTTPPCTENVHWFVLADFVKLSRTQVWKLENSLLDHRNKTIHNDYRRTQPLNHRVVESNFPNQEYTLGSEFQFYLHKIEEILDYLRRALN
observation-type: Ki (µM)

Examples from the recorded data:
[
  {
    "compound": "Cc1ccccc1N1C(=O)c2cc(S(N)(=O)=O)c(Cl)cc2NC1C (stereo not given)",
    "Ki [µM]": 1.71
  },
  {
    "compound": "CC1Nc2cc(Cl)c(S(N)(=O)=O)cc2S(=O)(=O)N1C (stereo not given)",
    "Ki [µM]": 3.66
  },
  {
    "compound": "NS(=O)(=O)c1cc(C2(O)NC(=O)c3ccccc32)ccc1Cl (stereo not given)",
    "Ki [µM]": 1.35
  }
]

a = CC1Nc2cc(C(F)(F)F)c(S(N)(=O)=O)cc2S(=O)(=O)N1C (stereo not given)
b = CCCCNc1cc(C(=O)O)cc(S(N)(=O)=O)c1Oc1ccccc1
Problem: Looking at recorded values for Ki, does a or b come in lower? Please identify the chosen entry by its label.
Result: b
